Record form. Attribute: interaction score. Fill in for each entry.
# testTarget: T1, 4H347-AA
# T1 chain: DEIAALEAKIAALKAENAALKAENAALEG
# experimentNotes: two-hybrid library CCmax;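 note: natural log of median RNA to DNA barcode read ratio; higher means stronger binding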
# conditions: mean of both orientations
One number for each entry.

Below are 3 binders. Give each one its interaction score.
1. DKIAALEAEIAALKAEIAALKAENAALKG [4H2124-AA]
2. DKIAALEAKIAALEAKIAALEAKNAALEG [4H2343-AA]
3. DKIAALKAENAALEAKIAALKAENAALKG [4H2732-AA]

Response:
-1.2
-1.77
-1.49

Below are 4 binders. Give each one its interaction score.
1. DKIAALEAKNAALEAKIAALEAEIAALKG [4H2466-AA]
2. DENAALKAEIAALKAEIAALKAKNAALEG [4H1615-AA]
3. DENAALKAENAALKAEIAALKAEIAALKG [4H1738-AA]
4. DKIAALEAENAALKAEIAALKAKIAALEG [4H2253-AA]

Response:
1: -2.11; 2: -1.38; 3: -1.67; 4: -1.66

Request: Request the reported interaction score associated with DKIAALEAKNAALKAEIAALEAKNAALKG [4H2504-AA]
Response: -1.77
